Assay: inhibitors of TNFa-induced NFkB p65 translocation, primary screen, imaging, HUVEC, MLSMR starter and 10KST1 sets (AID 438);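 further: compound added about 3h40 before a 20 min TNFalpha stimulation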;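 on inhibition: signal is the nuclear over cytoplasmic p65 intensity ratio per well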
Details: HUVEC TNFa-induced p65 nuclear translocation; at 2 µM, stronger effect = higher value, 0% TNFa-plus-vehicle, 100% no-TNFa wells
Provide the reported inhibition of each item.
One number for each entry, in %.

Consider the reported inhibition for these compounds:
O=C(CSc1nnc(NC(=O)C2CCC2)s1)NC1CC1 | 0.8
COC(=O)/C=c1/s/c(=C(/C#N)C(=O)N2CCCCC2)n(-c2ccccc2)c1=O | -0.7
CN1CCN(CC#CCC(O)(c2ccccc2)C2CCCC2)CC1 (configuration not stated) | 2.2
CCCn1c(C)nc2c(c1=O)c1nc3ccccc3nc1n2CCc1ccccc1 | -3.1
CCOC(=O)c1sc(=NC(=O)c2ccc(OC)c(OC)c2)n(C)c1C | 10.1

# return inhibition for each item in the list
1. CC1(C)Cc2[nH]c(=O)c(C#N)cc2CS1
2. COc1c(Br)cc2c(C)c(C(=O)O)oc2c1Br
3. CCCc1nnc(NC(=O)NCCN2C(=O)C3C4C=CC(C4)C3C2=O)s1 (configuration not stated)
4. CCCn1nc(Oc2nc(SC)nc(N(C)C)n2)ccc1=O
5. COc1ccc(-n2ncc3c(Nc4cccc(C)c4)ncnc32)cc1
6. Cc1ccc(NC(=O)CCC(=O)O)cc1F
7. Cn1c[n+](C)cc1/C=N/O

Response:
1: -11.1; 2: 3.5; 3: -10.4; 4: -6.1; 5: -11.3; 6: 9.4; 7: -2

====

Experiment: inhibitors of TNFa-induced NFkB p65 translocation, primary screen, imaging, HUVEC, MLSMR starter and 10KST1 sets (AID 438);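 further: compound added about 3h40 before a 20 min TNFalpha stimulation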
Settings: HUVEC TNFa-induced p65 nuclear translocation; measured here: nuclei count (cytotoxicity indicator), at 2.08 µM
Outcome label depends on cell count relative to 600: at/above gives Fulfilled, below gives Not fulfilled.

# count of solved cases: 5
C/C(=N\O)c1c(C)c2ccccc2n1C | Not fulfilled
CCCN1CCN(C(=O)Cn2c(=O)oc3cc(S(=O)(=O)NCc4ccccc4)ccc32)CC1 | Fulfilled
CC(C)c1nc(NCCN2CCOCC2)c(C#N)c2c1COC(C)(C)C2 | Not fulfilled
CC(=O)c1ccc(C#CC(C)(C)O)s1 | Not fulfilled
CCN(CC)CCN1C(=O)C(O)=C(C(C)=O)C1c1ccc(OC)c(OC)c1 (configuration not stated) | Not fulfilled

Query: Is reported cell count greater than or equal to 600 here: COC(=O)c1cc(OC)c(OC)cc1NC(=O)c1ccc(Br)o1
Response: Not fulfilled

Query: Is reported cell count greater than or equal to 600 here: NC(=O)NC(c1ccccc1)c1ccccc1F (configuration not stated)
Response: Not fulfilled

Query: Is reported cell count greater than or equal to 600 here: Cc1sc(-n2c(C)ccc2C)c(C#N)c1C
Response: Not fulfilled

Query: Is reported cell count greater than or equal to 600 here: Cc1ccc(-c2noc(CN3C(C)CCCC3C)n2)cc1 (configuration not stated)
Response: Not fulfilled

Query: Is reported cell count greater than or equal to 600 here: COc1cccc(OC)c1C(=O)Nc1nc2ccc(S(C)(=O)=O)cc2s1
Response: Not fulfilled

====

Target: Voltage-gated potassium channel subunit beta-2 (Rattus norvegicus)
Assay: KvBeta enzyme negative modulators, primary screen, biochemical, NADPH fluorescence (AID 622);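 further: slope of raw intensity against log time taken from 70 to 1610 s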
Conditions: recombinant KvBeta, 4-cyanobenzaldehyde reduction, at 10 µM, stronger effect = higher value
Outcome label depends on fluorescence slope relative to -0.5: at/above gives label 1, below gives label 0.

# count of solved cases: 8
COC(=O)c1[nH]c2ccc(Cl)cc2c1NC(=O)C1CC1 | label 1
O=C(COc1ccccc1)N1CCN(C(=O)c2cccc(F)c2)CC1 | label 1
CCOc1ccccc1N1Cc2cc(C)c(C)cc2C1 | label 0
CCOc1ccc2[nH]c(=O)c(C(c3nnnn3Cc3ccco3)N3CCC(C)CC3)cc2c1 (stereo not drawn) | label 0
c1ccc2ncc(-n3cnnn3)cc2c1 | label 1
O=C(c1ccncc1)N1CCN(C(=O)c2cccs2)CC1 | label 1
Nn1c(Cc2ccccc2F)nnc1SCC(=O)N1CC(=O)Nc2ccccc21 | label 1
CCCCCOc1ccc(C(=O)NCC(=O)NCC(=O)OCC)cc1 | label 1

Query: Is reported fluorescence slope greater than or equal to -0.5 here: CC(C)OC(=O)c1cc(=O)[nH]c2ccccc12
Response: label 0

Query: Is reported fluorescence slope greater than or equal to -0.5 here: COC(=O)NCC12CC3CC(C1)CC(CNC(=O)OC)(C3)C2
Response: label 1

Query: Is reported fluorescence slope greater than or equal to -0.5 here: COc1ccc(NC(=O)CN2CCN(S(=O)(=O)c3ccc(Cl)cc3)CC2)cc1
Response: label 1

Query: Is reported fluorescence slope greater than or equal to -0.5 here: CC(NC(=O)c1ccc(=O)oc1)c1ccccc1 (stereo not drawn)
Response: label 1

Query: Is reported fluorescence slope greater than or equal to -0.5 here: CCOc1ccc(C2CC(c3ccccc3)Nc3nc(N)nn32)cc1 (stereo not drawn)
Response: label 1

Query: Is reported fluorescence slope greater than or equal to -0.5 here: CCCCc1ccc(NC(=O)N[C@H](C(=O)O)C(C)C)cc1
Response: label 1

====

Biological target: Voltage-gated potassium channel subunit beta-2 (Rattus norvegicus) (UniProt P62483)
Sequence (P62483 whole entry, looked up): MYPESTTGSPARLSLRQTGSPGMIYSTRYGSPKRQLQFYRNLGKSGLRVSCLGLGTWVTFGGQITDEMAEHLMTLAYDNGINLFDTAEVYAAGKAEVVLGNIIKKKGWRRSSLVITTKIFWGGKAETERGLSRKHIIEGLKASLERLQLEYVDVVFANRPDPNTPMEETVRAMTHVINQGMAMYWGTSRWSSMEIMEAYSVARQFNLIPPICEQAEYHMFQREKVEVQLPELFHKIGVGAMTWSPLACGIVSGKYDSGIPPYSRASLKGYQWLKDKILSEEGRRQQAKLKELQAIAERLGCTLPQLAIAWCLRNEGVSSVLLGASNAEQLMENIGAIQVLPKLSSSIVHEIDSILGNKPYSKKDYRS
Test: KvBeta enzyme negative modulators, primary screen, biochemical, NADPH fluorescence (AID 622);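 further: slope of raw intensity against log time taken from 70 to 1610 s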
Conditions: recombinant KvBeta, 4-cyanobenzaldehyde reduction, at 10 µM, stronger effect = higher value
assay-metric: fluorescence slope
Give bare numbers.

COc1cccc(C(c2nnnn2CCc2ccccc2)N2CCN(c3ccccc3)CC2)c1OC (stereo not given) | -0.516
CCSc1nc2sc3c(c2c(=O)n1C1CCCCC1)CCN(C)C3 | -0.419
C=CCOc1ccc(C2/C(=C(\O)c3c(C)[nH]c(C(=O)OC)c3C)C(=O)C(=O)N2CCN(C)C)cc1 (stereo not given) | -0.536
Cc1ccc(Oc2nc3c(c(=O)n(Cc4ccccc4F)c(=O)n3C)n2C)cc1 | -0.508

Then this molecule:
Query: Tell us which fluorescence slope value is on record for CCOc1ccc(N=C(NC#N)SCC(=O)NC2CC2)cc1
Response: -0.491

====

Provide the reported inhibition of each item.
Test: inhibitors of TNFa-induced NFkB p65 translocation, primary screen, imaging, HUVEC, MLSMR starter and 10KST1 sets (AID 438);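 further: compound added about 3h40 before a 20 min TNFalpha stimulation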;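 on inhibition: signal is the nuclear over cytoplasmic p65 intensity ratio per well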
Settings: HUVEC TNFa-induced p65 nuclear translocation; at 2 µM, stronger effect = higher value, 0% TNFa-plus-vehicle, 100% no-TNFa wells
Answers are plain numbers, in %.

Cn1c(=O)cc(OCCCC(=O)Nc2ccc3c(c2)OCCO3)c2ccccc21 | -3.3
CN1CCc2c(C#N)c(N3CCCCC3)nc(N3CCOCC3)c2C1 | -9.2
COC(=O)C(C)Sc1nc2c(c(=O)n(C)c(=O)n2C)n1CCC(C)C (configuration not stated) | 0.3
O=C(Nc1cccnc1)Nc1ccccn1 | -4.3
CC1=C(C(=O)Nc2ccc(F)cc2)C(c2cccc(C)c2)n2nc(CCCO)nc2N1 (configuration not stated) | -3.5
Cc1cc2ccccc2c(=O)n1CC(=O)N(C)c1ccc(F)cc1 | -4.7

# return inhibition for each item in the list
1. O=C(Nc1ccc2c(c1)OCO2)C(c1ccc(Cl)cc1)N1CCN(C(=O)c2ccco2)CC1 (configuration not stated)
2. Cc1cc(SCCC(=O)O)nc2ccccc12
3. Cc1occc1C(=O)Nc1nnc(C2CCCCC2)s1
4. CC(C)c1nnc(SCC(=O)NCc2ccco2)n1C

Response:
1: -2.1; 2: -18.8; 3: 7.6; 4: 2.2

# return inhibition for each item in the list
1. CCC(NC(=O)Nn1cnnc1)(C(F)(F)F)C(F)(F)F
2. O=C(Nc1ccc(CN2CCOCC2)cc1)c1cc2ccccn2n1
3. CCOc1ccc(C(=O)OCc2nnc(-c3cccs3)o2)cc1OC

Response:
1: 3.1; 2: 0; 3: 7.1

# return inhibition for each item in the list
1. C=CCOC(=O)COc1ccc2c(C)c(C)c(=O)oc2c1C
2. Cc1ccc(C)c(S(=O)(=O)n2cnc3ccccc32)c1
3. C=CCNc1nc(N2CCCCC2)c(C#N)c2c1CN(Cc1ccccc1)CC2
4. CCC(C)(C)n1nnnc1C(c1cc2cc(OC)ccc2[nH]c1=O)N1CCc2ccccc21 (configuration not stated)
5. COc1ccc(-c2nnc(SCC(=O)Nc3ccc(Cl)cc3)n2C)cc1
6. COCCn1nnnc1C(c1cccs1)N1CCN(c2cc(C)ccc2C)CC1 (configuration not stated)
7. CCc1[nH]c(=O)c(C#N)c2c1CCCC2

Response:
1. -3.6
2. -5.9
3. -15.8
4. -18.4
5. -5.5
6. 11.4
7. -8.1

====

Provide the reported inhibition of each item.
Experiment: inhibitors of E-selectin induction by TNFa, primary screen, imaging, HUVEC, immunofluorescence, MLSMR starter and 10KST1 sets (AID 487);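 further: signal is fraction of cell area covered by stained E-selectin grains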
Settings: HUVEC TNFalpha-induced E-selectin immunofluorescence imaging, at 2 µM; stronger effect = higher value
Answers are plain numbers, in %.

COC(=O)CCC(=O)Nc1cccc(Br)c1 | 56.2
COc1ccc(CNc2nc(NCc3ccc(OC)cc3)n(S(C)(=O)=O)n2)cc1 | 47

# return inhibition for each item in the list
1. Cc1ccc(OCC(O)CN2C(=O)NC(C)(C)C2=O)cc1C (configuration not stated)
2. COc1cc(NC2c3ccccc3C(=O)N2c2ccc(C)cn2)cc(OC)c1OC (configuration not stated)
3. Cc1ccc(-c2noc(CCC(=O)NC3CCCc4ccccc43)n2)cc1 (configuration not stated)
4. CCOc1ccc(/C(O)=C2/C(=O)C(=O)N(c3cc(C)on3)C2c2ccc(C(=O)OC)cc2)cc1 (configuration not stated)
5. O=C(CN(Cc1ccco1)C(=O)CNS(=O)(=O)c1ccc(F)cc1)NCCc1ccccc1
6. COc1nc(OC)nc(N2CCC(C(=O)NCc3cccs3)CC2)n1
7. COc1ccc(Nc2cc(C)nc(-n3nc(C)cc3C)n2)cc1
8. COc1ccc(N2CCN(CCNC(=O)CCS(=O)(=O)c3cccc4nsnc34)CC2)cc1

Response:
-19.6
-7.5
-27.6
-27.6
-38.5
-1.7
-182
15

# return inhibition for each item in the list
1. O=C(CNC1CCCCCC1)Nc1ccc(S(=O)(=O)NC2CC2)cc1
2. COc1ccc(CCn2c(=N)c(C(=O)NCc3ccco3)cc3c(=O)n4ccccc4nc32)cc1OC
3. CCOc1ccc(C(=O)N2CCN(c3ccccc3)CC2)cc1OCC
4. CC1=C(C(=O)N2CCCCC2)C(c2cccs2)C2=C(CCCC2=O)N1 (configuration not stated)
5. O=C(CCOc1ccccc1)NCc1ccccc1
6. Nn1c(Cc2ccccc2F)nnc1SCC(=O)N1CC(=O)Nc2ccccc21
7. c1ccc(-n2c(Cc3cccnc3)nc3cnccc32)cc1

Response:
[-51.5, -94.3, -17.5, -31.6, 12.7, -11.5, 48.6]

Each recorded value in this set is attributed to PubChem BioAssay.
